# Tgt: Metabotropic glutamate receptor 8 (Rattus norvegicus) (UniProt P70579)
# Sequence (P70579 whole entry, looked up): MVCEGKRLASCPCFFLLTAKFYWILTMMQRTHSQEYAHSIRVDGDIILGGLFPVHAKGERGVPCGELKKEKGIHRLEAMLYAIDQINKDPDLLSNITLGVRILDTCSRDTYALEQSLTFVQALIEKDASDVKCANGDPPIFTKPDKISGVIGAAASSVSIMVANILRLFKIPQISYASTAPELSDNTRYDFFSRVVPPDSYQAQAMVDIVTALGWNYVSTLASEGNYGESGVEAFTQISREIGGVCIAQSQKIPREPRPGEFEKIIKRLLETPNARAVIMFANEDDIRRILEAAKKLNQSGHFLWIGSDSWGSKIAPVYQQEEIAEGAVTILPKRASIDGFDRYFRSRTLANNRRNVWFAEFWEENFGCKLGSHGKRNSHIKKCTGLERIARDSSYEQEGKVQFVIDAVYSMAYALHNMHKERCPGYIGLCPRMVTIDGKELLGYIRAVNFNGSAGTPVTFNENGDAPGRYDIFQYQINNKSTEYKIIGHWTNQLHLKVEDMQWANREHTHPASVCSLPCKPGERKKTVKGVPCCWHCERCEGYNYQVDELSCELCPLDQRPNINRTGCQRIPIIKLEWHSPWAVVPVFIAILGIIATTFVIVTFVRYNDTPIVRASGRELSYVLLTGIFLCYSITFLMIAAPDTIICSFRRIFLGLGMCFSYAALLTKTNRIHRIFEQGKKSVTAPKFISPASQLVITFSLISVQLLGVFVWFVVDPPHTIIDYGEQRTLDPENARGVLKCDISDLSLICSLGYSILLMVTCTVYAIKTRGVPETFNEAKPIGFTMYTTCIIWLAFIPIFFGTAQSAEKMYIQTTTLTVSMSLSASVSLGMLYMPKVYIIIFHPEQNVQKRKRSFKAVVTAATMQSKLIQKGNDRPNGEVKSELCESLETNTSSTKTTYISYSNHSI
# Assay overview: mGluR8 Gi/Go-coupled signaling modulation – cell-based, rat, thallium flux, HTS, primary screen (AID 488969)
# Run parameters: HEK293 rat mGluR8, GIRK thallium flux, FluoZin2; at 10 µM; stronger effect = higher value; submaximal glutamate (EC20) added with thallium
Over roughly 110,000 compounds, “z-score” has its median near -0.1; the highest 2% begin near 2. The list comes from a sample in which the highest values are over-represented; it also holds close analogues and randomly drawn compounds.
Label 1 when z-score >= 0.3; otherwise -1.

>  <Compound>
CCCCOC(=O)c1ccc(NC(=O)/C=C/c2cccs2)cc1

>  <Tgt>
Metabotropic glutamate receptor 8 (Rattus norvegicus) (UniProt P70579)

>  <Assigned class>
-1

$$$$

### Prompt Dear colleague, could you confirm whether CN(C)S(=O)(=O)c1cccc(NC(=S)NN=C(Cc2ccccc2)Cc2ccccc2)c1 has z-score at or above 0.3?
### Response 1

### Prompt Quick check, z-score >= 0.3? N=C1S/C(=C\c2cn[nH]c2-c2ccc(F)cc2)C(=O)N1c1ccccc1F
### Response 1

### Prompt Could you verify whether the entry COC(=O)COc1cccc(NC(=O)c2cccs2)c1 shows z-score of no less than 0.3?
### Response -1

###

Kindly supply the reported z-score values for the records listed here.
# Tgt: Metabotropic glutamate receptor 8 (Rattus norvegicus) (UniProt P70579)
# Assay overview: mGluR8 Gi/Go-coupled signaling modulation – cell-based, rat, thallium flux, HTS, primary screen (AID 488969)
# Run parameters: HEK293 rat mGluR8, GIRK (G protein-gated inwardly rectifying potassium channel) thallium flux, FluoZin2; at 10 µM; stronger effect = higher value; submaximal glutamate (EC20) added with thallium
The full ranking holds about 110,000 compounds; the median of “z-score” is about -0.1, and the highest 2% start at about 2. This is one part of a sample in which the highest values are shown more often than they occur.
One number for each entry.

Known z-score results, listed for orientation:
>  <Molecule>
Cc1csc(NC(=O)CSc2nnc(CCNC(=O)c3cccs3)n2C)n1

>  <z-score>
-0.0983

$$$$
>  <Molecule>
O=C(NC(=S)N1CCN(c2ccc(F)cc2)CC1)C12CC3CC(CC(C3)C1)C2

>  <z-score>
2.89

$$$$

Look at each molecule and report its z-score.
1. CCCNCC1C(Oc2ccc(Cl)cc2)C(=O)N1c1ccccc1C (stereo unspecified)
2. CC(c1ccccc1)N1C(=O)c2ccc(C(=O)NCc3ccco3)cc2C1=O (stereo unspecified)
3. CC12CC3CC(C)(C1)CC(CN1CCOCC1)(C3)C2
4. Cc1csc(NC(=O)CSc2nnc(CCNC(=O)c3ccc(Cl)c(Cl)c3)n2C)n1
5. CCOC(=O)N1CCC(NC(=O)c2ccc(CS(=O)(=O)c3ccc(OC)cc3)o2)CC1
6. CCOC(=O)COc1ccc(S(=O)(=O)Nc2cccc(SC)c2)cc1
7. COc1ccc(N2CCN(Cc3nc4ccsc4c(=O)[nH]3)CC2)cc1

### Response
[1.55, -0.54, -0.06, -0.837, -0.141, -0.28, -0.255]

For every item in the list below, what is its measured z-score?
1. CC12CC3(C)CC(C)(C1)CC(C(=O)NC(=S)N1CCOCC1)(C2)C3
2. O=C(NC(=S)N1CCOCC1)C12CCC3CC(CC(C3)C1)C2

### Response
1: 8.61; 2: 0.411
